System: bacterial inoculum
assayMethodText: Thermal stability: in vitro lytic assay after 30 min heating
Format: cell-based
reportedConditions: 30 minutes at 42° C.

molecule	% of CF-301 wild-type, 42° C.
pp65: Modified PlySs2 lysin, SEQ ID NO: 5: L92W, V104S, V128T, Y137S, S198Q, V204A, V212A; +246K (protein) MTTVNEALNNVRAQVGSGVSVGNGECYALASWYERMISPDATVGLGAGVGWVSGAIGDTISAKNIGSSYNWQANGWTVSTSGPFKAGQIVTWGATPGNPYGHVSIVEAVDGDRLTILEQNYGGKRYPTRNYYSAASSRQQVVHYITPPGTVAQSAPNLAGSRSYRETGTMTVTVDALNVRRAPNTSGEIVAVYKRGEQFDYDTAIIDVNGYAWVSYIGGSGKRNYVATGATKDGKRFGNAWGTFK	270.4%

// provenance: patent US20210032294A1
